From: paper PMC10397247

# target.or.test.system: T1, 4H949-bN
# T1 chain: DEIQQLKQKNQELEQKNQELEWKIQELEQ
# assay.comment: two-hybrid library CCNG1;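 also: natural log of median RNA to DNA barcode read ratio; higher means stronger binding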
metric.name: interaction score

1. DKIQQLKQKIQELKQKNQELEWENQELEQ [4H2931-bN]
2. DKIQQLKQKIQELEQKIQELKWENQELEQ [4H2859-bN]
3. DKNQQLEQKIQELEQKNQELEWKIQELEQ [4H3381-bN]
4. DKIQQLEQENQELKQEIQELKWKIQELEQ [4H2253-bN]
Ask: Could you please sort these 4 entries by interaction score from high to low? Lab note: record answer as labels in requested order.
Reply: 4, 1, 3, 2
